- study.target: follicle-stimulating hormone (FSH) receptor (Rattus norvegicus)
- Construct: endogenous in cells
- Sequence (P20395 18-692): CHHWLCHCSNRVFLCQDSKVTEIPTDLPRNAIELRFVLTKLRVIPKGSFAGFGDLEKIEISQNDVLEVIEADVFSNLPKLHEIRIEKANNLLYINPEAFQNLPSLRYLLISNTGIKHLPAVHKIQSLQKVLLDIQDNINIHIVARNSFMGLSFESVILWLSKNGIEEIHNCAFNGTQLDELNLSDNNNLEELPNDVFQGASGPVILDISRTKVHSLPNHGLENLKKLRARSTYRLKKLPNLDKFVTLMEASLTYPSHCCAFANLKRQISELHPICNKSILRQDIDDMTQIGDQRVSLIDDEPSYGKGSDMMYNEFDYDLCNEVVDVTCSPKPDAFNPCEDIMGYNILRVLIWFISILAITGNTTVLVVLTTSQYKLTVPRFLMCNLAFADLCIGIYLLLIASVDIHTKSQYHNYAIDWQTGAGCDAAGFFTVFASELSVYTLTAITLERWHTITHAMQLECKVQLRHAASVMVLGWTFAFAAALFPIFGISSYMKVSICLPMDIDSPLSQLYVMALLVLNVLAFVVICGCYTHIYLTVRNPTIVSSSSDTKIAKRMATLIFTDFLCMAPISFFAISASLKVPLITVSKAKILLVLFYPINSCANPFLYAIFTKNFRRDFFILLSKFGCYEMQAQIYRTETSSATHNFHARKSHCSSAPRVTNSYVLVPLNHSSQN
- assay.protocol: Rat granulosa EC50 FSH (Assay B)
- test.conditions: rat granulosa cells, per Yanofsky et al. 2006
- Method: Rat Granulosa EC50 FSH (Assay B) The assay was performed pursuant to the teaching of Yanofsky et al. (2006) Allosteric activation of the follicle-stimulating hormone (FSH) receptor by selective, nonpeptide agonists. JBC 281(19): 13226-13233, which is incorporated by reference in the disclosure of the invention.
Kindly apply the following: class 1 if EC50 is less than 0.5 µM, class 0 in every other case.

COc1ccc(C2=NN(C(=O)c3cc(F)c(F)c(F)c3F)CC2)cc1OC ... class 0
COc1ccc(C2=NN(C(=O)c3ccccc3F)C(C)(C)C2)cc1OC ... class 1
COc1ccc(C2=NN(C(=O)c3cccc(OC(C)(F)F)c3)CC2)cc1OC ... class 0
COc1ccc(C2=NN(C(=O)c3ccc(C)cc3)C(C)(C)C2)cc1OC ... class 0

Given the entry "COc1ccc(-c2ccn(C(=O)c3ccc4c(c3)OCO4)n2)cc1OC" , would its reported EC50 be below 0.5 µM?
class 0
